# measuredTarget: T1, recombinant soluble human type 1 IL-1 receptor (extracellular domain, glycosylated) (human, UniProt P14778 21-333, N-glycosylated (from SF9 insect cells); biotinylated in the ELISA of Examples 2 and 4c)
# T1 construct: also called hIL-1R; rshIL-1R
# T1 sequence: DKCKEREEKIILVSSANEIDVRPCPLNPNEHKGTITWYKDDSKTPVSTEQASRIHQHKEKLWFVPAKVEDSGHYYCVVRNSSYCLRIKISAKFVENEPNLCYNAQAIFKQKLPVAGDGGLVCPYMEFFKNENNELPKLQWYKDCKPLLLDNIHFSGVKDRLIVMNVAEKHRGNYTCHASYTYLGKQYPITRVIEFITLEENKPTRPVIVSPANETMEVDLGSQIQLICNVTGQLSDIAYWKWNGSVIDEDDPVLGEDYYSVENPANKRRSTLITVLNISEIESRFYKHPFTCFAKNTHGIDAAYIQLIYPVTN
# assayOverview: ELISA on biotinylated human IL-1R on streptavidin plates
recordedEndpoint: ELISA (absorbance at 370 nm in relation to 2D8), mean

>>> assayresult("HUM2/3 (antibody, V domains shown, also called combination of HUR HuVH v2 and HUR HuVK v3) VH: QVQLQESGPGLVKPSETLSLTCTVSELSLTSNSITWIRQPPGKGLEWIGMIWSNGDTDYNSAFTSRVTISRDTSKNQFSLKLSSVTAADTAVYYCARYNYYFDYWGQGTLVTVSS VL: EIVLTQSPATLSLSPGERATISCKASQNVDNRGVSYVHWYQQKPGQQPKLLIYKGSNLAFGVPARFSGSGSRTDFTLTISSLEPEDFATYYCQQSKGHPDTFGQGTKVEIK")
"2.2 relative to 2D8"

Okay, next one:
Task item: Consider the binder DEI2/4 (antibody, V domains shown, also called combination of HURDIVHv2 and HURDIVKv4) VH: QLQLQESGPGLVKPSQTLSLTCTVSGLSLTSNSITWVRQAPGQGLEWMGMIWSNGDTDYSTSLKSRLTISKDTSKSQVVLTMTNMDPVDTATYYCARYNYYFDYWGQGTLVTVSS VL: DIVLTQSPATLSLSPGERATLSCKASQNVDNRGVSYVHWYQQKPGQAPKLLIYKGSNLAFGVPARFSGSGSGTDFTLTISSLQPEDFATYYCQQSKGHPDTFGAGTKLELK . State its measured ELISA (absorbance at 370 nm in relation to 2D8), mean.
Reply: 1.7 relative to 2D8

Data origin, for the record: patent US20090191187A1
